Test system: Corn
assay procedure: Post-emergent herbicidal test, corn
Assay type: in vivo
Set-up: key: 1: no perceptible injury; 2: intermediate degrees of injury based upon the number and extent to which leaves were injured; 3: intermediate degrees of injury based upon the number and extent to which leaves were injured; 4: intermediate degrees of injury based upon the number and extent to which leaves were injured; 5: the plant was dead
measurement conditions: Table II; 2500 parts per million; after ten days
Description: Suspensions of the test compounds were prepared by dissolving one gram of compound in 50 milliliters of acetone in which had been dissolved 0.1 gram (10 percent of the weight of compound) of an alkylphenoxyethoxyethanol surfactant, as an emulsifying or dispersing agent. The resulting solution was mixed into 160 milliliters of water to give roughly 200 milliliters of a suspension containing the compound in finely divided form. […]
Consider the following compounds; for each one, report its Post-Emergent Herbicidal, Corn (injury rating).
Simply state the number, no unit and no words.

Tell me the measured Post-Emergent Herbicidal, Corn (injury rating) of Cc1ccc(C2C(=O)c3ccccc3C2=O)c(C)c1 [Reference II Page 146, Compound 9, reference compound] , please.
1

What about this compound? Cc1ccc(C)c(C2C(=O)c3ccccc3C2=O)c1 [Reference II Page 146, Compound 6, reference compound]
1

What about this compound? Cc1ccccc1C1C(=O)CCC1=O
3

What about this compound? Cc1ccc(C)c(C2C(=O)C3CCCCC3C2=O)c1 (centres unmarked)
1

What about this compound? Cc1ccc(C2C(=O)CCC2=O)c(C)c1
2

What about this compound? Cc1ccccc1C1C(=O)C2CCCCC2C1=O (centres unmarked)
2

What about this compound? Cc1ccccc1C1C(=O)c2ccccc2C1=O [Reference I Page 3, Compound 1, reference compound]
1

What about this compound? Cc1ccc(C2C(=O)C3CCCCC3C2=O)c(C)c1 (centres unmarked)
2

Data credit: patent US4338122A
